The origin of these recorded values is ChEMBL document CHEMBL5137025.

PROCEDURE_SUMMARY: Aqueous solubility of compound in PBS at pH 7.4 incubated for 1 hr
Format: physicochemical
READOUT_KIND: solubility at 1 h (µM)

>>> measured_value("Cc1ccn(C(C)c2nnc(Nc3ccn(Cc4c(F)cccc4Cl)n3)s2)n1 (configuration not stated)")
9
>>> measured_value("Cc1csc([C@](C)(O)c2nnc(Nc3ccn(Cc4csc(C)n4)n3)s2)n1")
413

====

PROCEDURE_SUMMARY: Protein binding in human plasma
Type: ADME, cell-free
RUN_PARAMETERS: read-out: PPB (converted)
READOUT_KIND: fraction unbound

>>> measured_value("O=c1nc(N2CCC3(CC2)OCCO3)sc2c([N+](=O)[O-])cc(C(F)(F)F)cc12")
0.006
